# Test system: OVCAR-4
# experiment: NCI tumour cell line growth inhibition, 48 h
Calls of active or inactive are those of the source. Rule as the data show it: active = GI50 up to about 1.1 µM and inactive = higher.
Return exactly one item of 1 = active, 0 = inactive

Before answering, review these 10 worked examples.
COc1cccc2c1OC(c1ccc(C#N)cc1)C([N+](=O)[O-])=C2 (stereo not drawn) | 0
O=C1CCN2C(=Nc3cccc4cccc2c34)N1 | 0
O=C1CCCCCCCCCCOC(=O)CCCCCCCCCCO1 | 0
Cc1nc(N)sc1C(=O)/C=C/c1ccc(/C=C/C(=O)c2sc(NC(=O)CCCCCCCCC(=O)Nc3nc(C)c(C(=O)/C=C/c4ccc(/C=C/C(=O)c5sc(N)nc5C)cc4)s3)nc2C)cc1 | 0
CC(=O)OC1C(=O)C(O)C(C)OC1O[C@@H]1C[C@@]2(C)[C@@H]3CC=C4[C@@H](C[C@H](O)C(=O)C4(C)C)[C@]3(C)C(=O)C[C@]2(C)[C@H]1[C@@](C)(O)C(=O)/C=C/C(C)(C)O (stereo partly drawn) | 1
C[C@H]1/C(=C/C(=O)OCCN(C)C)CC[C@H]2[C@H]1C(=O)C[C@H]1C(C)(C)[C@@H](O)CC[C@]21C | 0
O=C1C2C3SC(c4cc5ccccc5cc43)C2C(=O)N1c1ccccc1 (stereo not drawn) | 0
C=C1C(=O)OC2/C=C(\C)C(O)/C=C\C(C)(O)CC(OC(=O)/C(C)=C/C)C12 (stereo not drawn) | 0
COc1ccc2oc(=O)cc(C)c2c1 | 0
COc1nc2ncc([C@@H](O)[C@H](O)CO)nc2c(=O)n1C | 0

Record lookup: outcome of this test for `Cc1ccc2nc(N/N=C/c3sccc3C)cc(C)c2c1` ?
0

Name the outcome recorded for `C=CCNC1=C2C[C@@H](C)C[C@@H](OC)[C@H](OC(=O)CCN)[C@H](C)/C=C(\C)[C@@H](OC(N)=O)[C@H](OC)/C=C\C=C(/C)C(=O)NC(=CC1=O)C2=O` in the assay.
0

How was CCCCCCCC1(N=[N+]=[N-])C(=O)c2ccccc2N(C)C1=O (stereo not drawn) classified in this test?
0

Look up the recorded call for `CNC(=O)c1cccc2c(Nc3ccc(NS(C)(=O)=O)cc3OC)c3cccc(C)c3nc12` in this test.
0

So what was the verdict on CC1(C)CNC(=O)C2(CCCO2)CNC(C)(C)CNC(=O)C2(CCCO2)CN1 (stereo not drawn) in this test?
0

Short answer needed: outcome of this test for CN(C)CC1CCCC/C1=N/O (stereo not drawn) ?
0

Lab log entry: O=C1C2c3[nH]c4ccccc4c3C3CCSCC3C2C(=O)N1c1ccccc1 (stereo not drawn) — outcome as called in the assay?
0

# lookup: test call for c1ccc(COC[C@H]2C3OCC([C@H](OCc4ccccc4)[C@H]3OCc3ccccc3)N2Cc2ccccc2)cc1 (stereo partly drawn)
0

---

# Test system: SK-MEL-5
# experiment: NCI tumour cell line growth inhibition, 48 h
Calls of active or inactive are those of the source. Rule as the data show it: active = GI50 up to about 1.1 µM and inactive = higher.
# Lookup of reported GI50 keyed by entry

Take a look at these entries with their results.
NC(=S)N/N=C1\C(=O)N(c2cccc([N+](=O)[O-])c2)C(=O)C1C(=O)Nc1cccc([N+](=O)[O-])c1 (centres undefined) | > 100 µM (inactive)
CCOC(=O)c1ccc(-n2nnc(C(N)=O)c2O)cc1 | > 100 µM (inactive)
c1ncc(C23C4C5C6C4C2C6C53)[nH]1 (centres undefined) | > 100 µM (inactive)
CCOC(=O)NC(Nc1ccc(F)c(F)c1)(C(=O)OCC)C(F)(F)F (centres undefined) | 13.8 µM (inactive)
O=C1CCCCCCCCCCOC(=O)CCCCCCCCCCO1 | > 100 µM (inactive)
Fc1ccc(C(OCCN2CC3CC2CN3CCCc2ccccc2)c2ccc(F)cc2)cc1 (centres undefined) | 1.84 µM (inactive)

What GI50 value was documented for this molecule, `CSCC[C@H](NC(=O)[C@H](CC(C)C)NC(=O)[C@@H](Cc1ccccc1)NC(=O)CNC(=O)[C@@H](NC(=O)[C@H](C)NC(=O)[C@H](Cc1c[nH]c2ccccc12)NC(=O)[C@H](CCC(N)=O)NC(=O)[C@H](N)CC(N)=O)C(C)C)C(N)=O` ?
> 12.5 µM (inactive)

Form field: reported GI50 of `CC(C)(C)N/C(N)=N/C#N`
> 100 µM (inactive)

Quick one: GI50 for `CN1C(=O)CSC1=S` ?
> 100 µM (inactive)
